Sourced from patent US11739098B2

molecular target: human TLR7 (Homo sapiens); test: TLR7 inhibition reporter assay (HEK-Blue cells, SEAP reporter, gardiquimod stimulation); details: HEK-Blue cells overexpressing human TLR7, SEAP reporter, gardiquimod 7.5 μM
Sequence (Q9NYK1 27-1049): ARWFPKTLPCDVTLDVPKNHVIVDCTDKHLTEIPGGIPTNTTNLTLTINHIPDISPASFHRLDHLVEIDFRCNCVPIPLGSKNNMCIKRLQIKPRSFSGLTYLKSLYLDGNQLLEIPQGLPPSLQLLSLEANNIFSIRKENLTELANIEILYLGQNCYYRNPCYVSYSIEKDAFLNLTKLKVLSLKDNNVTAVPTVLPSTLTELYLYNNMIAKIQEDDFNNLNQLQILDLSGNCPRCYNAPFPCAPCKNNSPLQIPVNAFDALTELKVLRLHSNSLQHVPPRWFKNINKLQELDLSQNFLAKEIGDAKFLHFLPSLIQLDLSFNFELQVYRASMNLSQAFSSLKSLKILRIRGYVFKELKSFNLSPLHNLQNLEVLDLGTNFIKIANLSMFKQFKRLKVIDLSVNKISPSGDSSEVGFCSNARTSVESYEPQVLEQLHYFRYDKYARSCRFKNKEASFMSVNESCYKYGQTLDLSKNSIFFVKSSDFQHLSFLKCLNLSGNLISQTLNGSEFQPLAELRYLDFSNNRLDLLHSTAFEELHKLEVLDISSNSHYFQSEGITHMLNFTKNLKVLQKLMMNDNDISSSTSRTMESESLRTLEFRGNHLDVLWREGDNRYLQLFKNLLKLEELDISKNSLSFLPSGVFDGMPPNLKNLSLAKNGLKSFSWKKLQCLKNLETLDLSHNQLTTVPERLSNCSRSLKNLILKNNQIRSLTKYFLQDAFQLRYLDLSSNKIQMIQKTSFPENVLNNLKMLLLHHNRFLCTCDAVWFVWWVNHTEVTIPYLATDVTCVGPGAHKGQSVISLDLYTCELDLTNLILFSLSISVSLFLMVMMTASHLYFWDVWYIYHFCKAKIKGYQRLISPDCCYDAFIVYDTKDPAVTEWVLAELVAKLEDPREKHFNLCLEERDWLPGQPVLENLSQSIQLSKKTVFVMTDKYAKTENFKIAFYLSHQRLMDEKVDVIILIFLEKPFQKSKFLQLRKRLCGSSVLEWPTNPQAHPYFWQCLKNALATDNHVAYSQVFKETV
QUANTITY: IC50

CC(C)c1c(-c2ccc3occc3c2)[nH]c2ccc(C3CCNCC3)cc12: 100 to 1000 nM
Cc1c(-c2[nH]c3ccc(C4CCN(C(=O)CN(C)C)CC4)cc3c2C(C)C)cn2ccnc2c1C: < 100 nM
CC(C)c1c(-c2nc3c(N)ncnc3[nH]2)[nH]c2ccc(C3CCNCC3)cc12: 100 to 1000 nM
CNC(=O)CN1CCC(c2ccc3[nH]c(-c4cn(C)c5ncccc45)c(C(C)C)c3c2)CC1: < 100 nM
Cc1cc2cc(-c3[nH]c4ccc(C5CCNCC5)cc4c3C(C)C)ccn2n1: < 100 nM
Cc1cc(-c2[nH]c3ccc(C4CCN(CCS(C)(=O)=O)CC4)cc3c2C(C)C)cn2nnnc12: < 100 nM
CN(C)CC(=O)N1CCC(c2ccc3[nH]c(-c4ccn5ccnc5c4)c(CC(F)F)c3c2)CC1: < 100 nM
Cc1cc2cc(-c3[nH]c4ccc(C5CCN(CC(=O)N(C)C)CC5)cc4c3C(C)C)ccn2n1: 100 to 1000 nM
CNC(=O)CN1CCC(c2ccc3[nH]c(-c4cc(C)c5nc(C(=O)N(C)CCO)cn5c4)c(C(C)C)c3c2)CC1: < 100 nM
Cc1cc2ncnn2nc1-c1[nH]c2ccc(C3CCNCC3)cc2c1C(C)C: < 100 nM
CC(C)c1c(-c2cnc3ccnn3c2)[nH]c2ccc(C3CCN(CC(C)(C)O)CC3)cc12: 100 to 1000 nM
CC(C)c1c(-c2ccnc3[nH]ncc23)[nH]c2ccc(C3CCN(C4CCNCC4F)CC3)cc12 (stereo not shown): < 100 nM
Cc1cc(-c2[nH]c3ccc(C4CCN(C5COC5)CC4)cc3c2C(C)C)nc2scnc12: < 100 nM
CNC(=O)CN1CCC(c2ccc3[nH]c(-c4cn5cc(C)nc5cc4C)c(C(C)C)c3c2)CC1: < 100 nM
Cc1cc(-c2[nH]c3ccc(C4CCN(C5CCS(=O)(=O)CC5)CC4)cc3c2C(C)C)cn2nnnc12: < 100 nM
CC(C)c1c(-c2ccc3ncoc3c2)[nH]c2ccc(C3CCN(CC(=O)N(C)C)CC3)cc12: < 100 nM
